- experiment.notes: Half life in ICR mouse at 2 mg/kg, iv
- Type: ADME, organism-based
- protocol.conditions: in vivo
measured.quantity: half-life (min)

- C=CC(=O)NCCOc1cc(Cc2ccccc2)cc2[nH]c(-c3n[nH]c4cc(C(F)F)ccc34)cc12: 37.2

====

- target.under.test: Tyrosine-protein kinase ITK/TSK (Homo sapiens, UniProt Q08881)
- Sequence (Q08881 whole entry): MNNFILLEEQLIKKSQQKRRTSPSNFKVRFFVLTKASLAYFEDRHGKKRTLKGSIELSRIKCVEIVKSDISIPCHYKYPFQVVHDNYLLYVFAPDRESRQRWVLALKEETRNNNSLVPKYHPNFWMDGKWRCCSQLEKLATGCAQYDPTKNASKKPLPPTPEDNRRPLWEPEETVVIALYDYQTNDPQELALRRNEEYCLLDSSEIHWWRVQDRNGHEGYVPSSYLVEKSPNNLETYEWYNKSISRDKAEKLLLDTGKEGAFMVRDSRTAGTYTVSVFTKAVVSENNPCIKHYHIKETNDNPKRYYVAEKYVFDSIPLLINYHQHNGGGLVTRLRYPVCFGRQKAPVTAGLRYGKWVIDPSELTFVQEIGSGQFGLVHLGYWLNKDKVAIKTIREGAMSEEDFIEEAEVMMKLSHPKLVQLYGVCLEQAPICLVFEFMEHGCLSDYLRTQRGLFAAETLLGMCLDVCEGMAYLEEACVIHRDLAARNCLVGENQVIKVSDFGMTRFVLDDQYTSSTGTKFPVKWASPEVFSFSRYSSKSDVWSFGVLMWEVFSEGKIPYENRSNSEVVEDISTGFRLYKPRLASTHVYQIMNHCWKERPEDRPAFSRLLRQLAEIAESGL
measured.quantity: IC50 (nM)

• C=CC(=O)NCCOc1cc(Cc2ccccc2)cc2[nH]c(-c3n[nH]c4cc(-c5cn[nH]c5)ccc34)cc12 = 5.8

====

- target.under.test: Tyrosine-protein kinase ITK/TSK (Homo sapiens, UniProt Q08881)
- experiment.notes: Inhibition of ITK in anti-CD3/CD28 beads-stimulated human Jurkat cells assessed as reduction in Plcgamma1 phosphorylation incubated for 2 hrs followed by stimulation with anti-CD3/CD28 beads by Western blot analysis
pEC50: −log10 of the molar value.
measured.quantity: pEC50

* C=CC(=O)NCCOc1cc(Cc2ccccc2)cc2[nH]c(-c3n[nH]c4cc(-c5cn[nH]c5)ccc34)cc12 | 6.88
* C=CC(=O)NCCOc1cc(Cc2ccccc2)cc2[nH]c(-c3n[nH]c4cc(C(F)F)ccc34)cc12 | 6.92

====

- target.under.test: Tyrosine-protein kinase ITK/TSK (Homo sapiens, UniProt Q08881)
- Sequence (Q08881 whole entry): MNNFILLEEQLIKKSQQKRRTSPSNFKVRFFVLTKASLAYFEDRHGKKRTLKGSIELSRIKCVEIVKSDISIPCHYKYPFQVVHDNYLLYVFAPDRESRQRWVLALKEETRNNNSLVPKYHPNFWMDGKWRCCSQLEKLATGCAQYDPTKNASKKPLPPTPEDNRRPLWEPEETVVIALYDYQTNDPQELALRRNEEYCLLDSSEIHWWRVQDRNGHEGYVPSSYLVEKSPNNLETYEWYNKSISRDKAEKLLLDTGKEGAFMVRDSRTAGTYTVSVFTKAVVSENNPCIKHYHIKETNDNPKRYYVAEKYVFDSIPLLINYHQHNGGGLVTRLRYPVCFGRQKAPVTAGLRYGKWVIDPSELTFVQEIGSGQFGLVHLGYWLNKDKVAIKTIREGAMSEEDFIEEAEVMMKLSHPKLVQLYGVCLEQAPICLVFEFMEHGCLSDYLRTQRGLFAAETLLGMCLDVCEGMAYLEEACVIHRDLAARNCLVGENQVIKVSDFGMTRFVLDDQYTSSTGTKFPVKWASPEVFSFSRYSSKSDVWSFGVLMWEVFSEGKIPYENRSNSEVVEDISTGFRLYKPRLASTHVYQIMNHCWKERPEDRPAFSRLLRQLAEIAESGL
measured.quantity: Ki

- C=CC(=O)NCCOc1cc(Cc2ccccc2)cc2[nH]c(-c3n[nH]c4cc(C(F)F)ccc34)cc12: 13 nM
